Recorded IC50 values for a group of compounds are listed next.
target: human PDE-5A1 (Homo sapiens (Human)); experiment: Human PDE-5A1 inhibition assay (fluorescence polarization, FAM-cGMP); assay type: biochemical; conditions: human PDE5A1, 100 nM FAM-cGMP, 60 minutes room temperature

>>> observed_value("CCCc1nn(C)c2c(=O)[nH]c(-c3cc(N4C(=S)N(c5ccc(C#N)c(C(F)(F)F)c5)C(=O)C45CCC5)ccc3OCC)nc12")
"> 100 nM"
>>> observed_value("CCCc1nc(C)c2c(=O)[nH]c(-c3cc(N4C(=S)N(c5ccc(C#N)c(C(F)(F)F)c5F)C(=O)C45CCOC5)ccc3OCC)nn12 (stereo not shown)")
"≤ 10 nM"
>>> observed_value("CCCc1nc(C)c2c(=O)[nH]c(-c3cc(S(=O)(=O)NC4CCN(c5ccc(C#N)c(C(F)(F)F)c5)C4)ccc3OCC)nn12 (stereo not shown)")
"≤ 10 nM"
>>> observed_value("CCCc1nc(C)c2c(=O)[nH]c(-c3cc(N4C(=S)N(c5ccc(C#N)c(C(F)(F)F)c5)C(=O)C45CCOC5)ccc3OCC)nn12 (stereo not shown)")
"≤ 10 nM"
>>> observed_value("CCCc1nc(C)c2c(=O)[nH]c(-c3cc(N4C(=S)N(c5cnc(C#N)c(C(F)(F)F)c5)C(=O)C45CCC5)ccc3OCC)nn12")
"≤ 10 nM"
>>> observed_value("CCCc1nc(C)c2c(=O)[nH]c(-c3cc(NC(=O)Nc4ccc(C#N)c(C(F)(F)F)c4)ccc3OCC)nn12")
"≤ 10 nM"

[ask] Entry under review: CCCc1nc(C)c2c(=O)[nH]c(-c3cc(N4C(=S)N(c5ccc(C#N)c(C(F)(F)F)c5)C(=O)C4(C)C)ccc3OCC)nn12 . Reported IC50?
[reply] ≤ 10 nM

[ask] For CCCc1nc(C)c2c(=O)[nH]c(-c3cc(N4C(=S)N(c5ccc(C#N)c(C(F)(F)F)c5)C(=O)C4C)ccc3OCC)nn12 (stereo not shown) , what is its reported IC50?
[reply] ≤ 10 nM

[ask] Would you mind telling me what IC50 value was observed for CCCc1nc(C)c2c(=O)[nH]c(-c3cc(N4C(=S)N(c5ccc(C#N)c(C(F)(F)F)c5F)C(=O)C45CCC5)ccc3OCC)nn12 ?
[reply] ≤ 10 nM

[ask] What IC50 value was documented for this compound, CCCc1nc(C)c2c(=O)[nH]c(-c3cc(N4C(=S)N(c5ccc(C#N)c(C(F)(F)F)c5)C(=O)C45CCC5)ccc3OCC)nn12 ?
[reply] ≤ 10 nM

[ask] # IC50 lookup, item CCCc1nc(C)c2c(=O)[nH]c(-c3cc(S(=O)(=O)NC4CCN(c5ccc(C#N)c(C(F)(F)F)c5)C4=O)ccc3OCC)nn12 (stereo not shown)
[reply] ≤ 10 nM

[ask] Looking for the measured IC50 of CCCc1nn(C)c2c(=O)[nH]c(-c3cc(S(=O)(=O)C[C@](C)(O)C(=O)Nc4ccc(C#N)c(C(F)(F)F)c4)ccc3OCC)nc12 , can you help?
[reply] 10 to 100 nM

[ask] Dear colleague, I am looking for the recorded IC50 of the following compound: CCCc1nc(C)c2c(=O)[nH]c(-c3cc(S(=O)(=O)NC4CN(c5ccc(C#N)c(C(F)(F)F)c5)C4)ccc3OCC)nn12
[reply] ≤ 10 nM
